Assay: collision cross section (TIMS, N2 drift gas) of the primary ion; higher = larger gas-phase ion size
Settings: ionization mode: ESI-; ion species: [M-H]-
Quick reference: collision cross section of the listed items.
Value expressed in Å²; do not type the unit.

compound	measurement
Oc1ccc2c(c1)C13CCCCC1(O)C(C2)N(CC1CCC1)CC3 (stereo not drawn)	188.37
CC(C)(O)c1ccccc1CCC(SCC1(CC(=O)O)CC1)c1cccc(C=Cc2ccc3ccc(Cl)cc3n2)c1 (stereo not drawn)	244.69
O=c1c(-c2ccc(O)cc2)coc2cc(O)ccc12	157.58
C[C@H](CCC(=O)O)[C@H]1CC[C@H]2[C@@H]3[C@H](O)C[C@@H]4C[C@H](O)CC[C@]4(C)[C@H]3C[C@H](O)[C@]12C	203.99
COC(=O)c1ccc(CNS(C)(=O)=O)cc1S(=O)(=O)NC(=O)Nc1nc(OC)cc(OC)n1	206.67
CCCCOC(=O)c1ccc(O)cc1 [Butyl 4-hydroxybenzoate]	147.76
CCCCc1ncc(/C=C(\Cc2cccs2)C(=O)O)n1Cc1ccc(C(=O)O)cc1	198.36
O=C(O)C(F)(F)C(F)(F)C(F)(F)C(F)(F)C(F)(F)C(F)(F)C(F)(F)F	155.67

Name the reported collision cross section value associated with the compound `O=C(O)c1ccc(-c2ccccc2-c2nnn[nH]2)cc1`
162.3
